# assay_overview: physchem
# applied_conditions: pH 7.4
Where a name gives a salt, the structure may show the parent alone.
parameter_measured: solubility (µg/mL)
Use µg/mL as the unit, but write only the number.

Q. Reported solubility for N[C@@H](CC(=O)O)C(=O)NC1CCN(c2nc3c(cc2F)c(=O)c(C(=O)O)cn3-c2ccc(F)cc2F)C1 (stereo partly drawn) [Example 45, hydrochloride] : what is it?
A. 2400

Q. Reported solubility for CC(C)C[C@H](NC(=O)[C@H](C)N)C(=O)NC1CCN(c2nc3c(cc2F)c(=O)c(C(=O)O)cn3-c2ccc(F)cc2F)C1 (stereo partly drawn) [Example 55r] : what is it?
A. 2000

Q. Reported solubility for NC(Cc1ccc(O)cc1)C(=O)NC1CCN(c2nc3c(cc2F)c(=O)c(C(=O)O)cn3-c2ccc(F)cc2F)C1 (stereo not drawn) [Example 13] : what is it?
A. 60

* * *

# assay_overview: physchem
# applied_conditions: pH 7.4
Where a name gives a salt, the structure may show the parent alone.
parameter_measured: solubility (µg/mL)
Use µg/mL as the unit, but write only the number.

Illustrative cases are given below, each with its answer.
[[record]]
compound = "CC(C)C[C@H](NC(=O)[C@@H](N)CC(C)C)C(=O)NC1CCN(c2nc3c(cc2F)c(=O)c(C(=O)O)cn3-c2ccc(F)cc2F)C1 (some centres unmarked) [Example 55q]"
val = 190

[[record]]
compound = "CSCC[C@H](NC(=O)[C@H](C)N)C(=O)NC1CCN(c2nc3c(cc2F)c(=O)c(C(=O)O)cn3-c2ccc(F)cc2F)C1 (some centres unmarked) [Example 55n]"
val = 2500

[[record]]
compound = "CC(C)CC(N)C(=O)NC1CCN(c2nc3c(cc2F)c(=O)c(C(=O)O)cn3-c2ccc(F)cc2F)C1 (centres unmarked)"
val = 140

[[record]]
compound = "CS(=O)(=O)CC[C@H](N)C(=O)NC1CCN(c2nc3c(cc2F)c(=O)c(C(=O)O)cn3-c2ccc(F)cc2F)C1 (some centres unmarked) [Example 31c, Hydrochloride]"
val = 30

[[record]]
compound = "NC1CCN(c2nc3c(cc2F)c(=O)c(C(=O)O)cn3-c2ccc(F)cc2F)C1 (centres unmarked) [tosufloxacin, reference compound]"
val = 10

[[record]]
compound = "N[C@@H](Cc1cnc[nH]1)C(=O)NC1CCN(c2nc3c(cc2F)c(=O)c(C(=O)O)cn3-c2ccc(F)cc2F)C1 (some centres unmarked) [Example 44c, Dihydrochloride]"
val = 300


Q. Reported solubility for NC(=O)C[C@H](N)C(=O)NC1CCN(c2nc3c(cc2F)c(=O)c(C(=O)O)cn3-c2ccc(F)cc2F)C1 (some centres unmarked) [Example 41, hydrochloride] : what is it?
A. 400

Q. Reported solubility for CCC[C@H](NC(=O)[C@@H](N)CCC)C(=O)NC1CCN(c2nc3c(cc2F)c(=O)c(C(=O)O)cn3-c2ccc(F)cc2F)C1 (some centres unmarked) [Example 3b, hydrochloride] : what is it?
A. 680

Q. Reported solubility for CCCC(N)C(=O)NC1CCN(c2nc3c(cc2F)c(=O)c(C(=O)O)cn3-c2ccc(F)cc2)C1 (centres unmarked) [Example 26i] : what is it?
A. 240

Q. Reported solubility for NC(Cc1ccccc1)C(=O)NC1CCN(c2nc3c(cc2F)c(=O)c(C(=O)O)cn3-c2ccc(F)cc2F)C1 (centres unmarked) : what is it?
A. 340

Q. Reported solubility for CSCC[C@H](NC(=O)[C@@H](N)CCSC)C(=O)NC1CCN(c2nc3c(cc2F)c(=O)c(C(=O)O)cn3-c2ccc(F)cc2F)C1 (some centres unmarked) [Example 55o] : what is it?
A. 310

Q. Reported solubility for CCC[C@H](NC(=O)CN)C(=O)NC1CCN(c2nc3c(cc2F)c(=O)c(C(=O)O)cn3-c2ccc(F)cc2F)C1 (some centres unmarked) : what is it?
A. 80

Q. Reported solubility for CC(C)C(N)C(=O)NC1CCN(c2nc3c(cc2F)c(=O)c(C(=O)O)cn3-c2ccc(F)cc2F)C1 (centres unmarked) : what is it?
A. 410

Q. Reported solubility for CC(N)C(=O)NC(C)C(=O)NC1CCN(c2nc3c(cc2F)c(=O)c(C(=O)O)cn3-c2ccc(F)cc2F)C1 (centres unmarked) : what is it?
A. 1070

* * *

# assay_overview: physchem
# applied_conditions: water
Where a name gives a salt, the structure may show the parent alone.
parameter_measured: solubility (mg/mL)
Use mg/mL as the unit, but write only the number.

Illustrative cases are given below, each with its answer.
[[record]]
compound = "CSCC[C@H](NC(=O)[C@@H](N)CC(C)C)C(=O)NC1CCN(c2nc3c(cc2F)c(=O)c(C(=O)O)cn3-c2ccc(F)cc2F)C1 (some centres unmarked) [Example 55p]"
val = 23

[[record]]
compound = "CSCC[C@H](NC(=O)[C@H](C)N)C(=O)NC1CCN(c2nc3c(cc2F)c(=O)c(C(=O)O)cn3-c2ccc(F)cc2F)C1 (some centres unmarked) [Example 55n]"
val = 20

[[record]]
compound = "NC1CCN(c2nc3c(cc2F)c(=O)c(C(=O)O)cn3-c2ccc(F)cc2F)C1 (centres unmarked) [tosufloxacin, reference compound]"
val = 0.65

[[record]]
compound = "CCC[C@H](NC(=O)CN)C(=O)NC1CCN(c2nc3c(cc2F)c(=O)c(C(=O)O)cn3-c2ccc(F)cc2F)C1 (some centres unmarked)"
val = 6.89

[[record]]
compound = "N[C@@H](CC(=O)O)C(=O)NC1CCN(c2nc3c(cc2F)c(=O)c(C(=O)O)cn3-c2ccc(F)cc2F)C1 (some centres unmarked) [Example 45, hydrochloride]"
val = 4.1

[[record]]
compound = "NC1CCN(c2nc3c(cc2F)c(=O)c(C(=O)O)cn3-c2ccc(F)cc2)C1 (centres unmarked) [A, reference compound]"
val = 1.4


Q. Reported solubility for CC(C)C[C@H](NC(=O)[C@@H](N)CC(C)C)C(=O)NC1CCN(c2nc3c(cc2F)c(=O)c(C(=O)O)cn3-c2ccc(F)cc2F)C1 (some centres unmarked) [Example 55q] : what is it?
A. 19

Q. Reported solubility for CC(C)C[C@H](NC(=O)[C@H](C)N)C(=O)NC1CCN(c2nc3c(cc2F)c(=O)c(C(=O)O)cn3-c2ccc(F)cc2F)C1 (some centres unmarked) [Example 55r] : what is it?
A. 26

Q. Reported solubility for CCC[C@H](NC(=O)[C@H](C)N)C(=O)NC1CCN(c2nc3c(cc2F)c(=O)c(C(=O)O)cn3-c2ccc(F)cc2F)C1 (some centres unmarked) [Example 55b] : what is it?
A. 26

Q. Reported solubility for CSCC[C@H](NC(=O)[C@@H](N)CCSC)C(=O)NC1CCN(c2nc3c(cc2F)c(=O)c(C(=O)O)cn3-c2ccc(F)cc2F)C1 (some centres unmarked) [Example 55o] : what is it?
A. 22

* * *

# assay_overview: physchem
# applied_conditions: pH 7.4
Where a name gives a salt, the structure may show the parent alone.
Respond with class 1 for solubility values of 1000 µg/mL and above, class 0 for values below.

Field: example entries. Status: answers known.
[[record]]
compound = "CC(N)C(=O)NC1CCN(c2nc3c(cc2F)c(=O)c(C(=O)O)cn3-c2ccc(F)cc2F)C1 (stereo not drawn) [Example 17]"
class_name = "class 0"

[[record]]
compound = "CSCC[C@H](NC(=O)[C@@H](N)CC(C)C)C(=O)NC1CCN(c2nc3c(cc2F)c(=O)c(C(=O)O)cn3-c2ccc(F)cc2F)C1 (stereo partly drawn) [Example 55p]"
class_name = "class 0"

[[record]]
compound = "CC(N)C(=O)NC(Cc1ccccc1)C(=O)NC1CCN(c2nc3c(cc2F)c(=O)c(C(=O)O)cn3-c2ccc(F)cc2F)C1 (stereo not drawn) [Example 11]"
class_name = "class 0"

[[record]]
compound = "NCC(=O)N[C@@H](Cc1ccccc1)C(=O)NC1CCN(c2nc3c(cc2F)c(=O)c(C(=O)O)cn3-c2ccc(F)cc2F)C1 (stereo partly drawn) [Example 1b, hydrochloride]"
class_name = "class 1"


Kindly consider the entry below.
Q. // inclusive: solubility at least 1000 µg/mL? input: NC1CCN(c2nc3c(cc2F)c(=O)c(C(=O)O)cn3-c2ccc(F)cc2)C1 (stereo not drawn) [A, reference compound]
A. class 0

* * *

# assay_overview: Plasma level in dog after oral dose
# Format: in vivo
# applied_conditions: 10 mg/kg, 10 mg equivalent/kg oral dose, HPLC
parameter_measured: AUC(0-t) at 32 h (ng·h/mL)
Use ng·h/mL as the unit, but write only the number.

Q. Reported AUC(0-t) at 32 h for NC1CCN(c2nc3c(cc2F)c(=O)c(C(=O)O)cn3-c2ccc(F)cc2F)C1 (stereo not shown) [tosufloxacin, reference compound] : what is it?
A. 5300

* * *

# System: E.Coli Juhl
# assay_overview: Second in vitro antibacterial test, MIC (BHIB)
# Assay type: cell-based
# applied_conditions: Escherichia coli, Brain Heart Infusion Broth (BHIB), read-out: MIC
Counter-ions that a name gives are not always drawn.
Measured log10 of MIC of individual entries
Scale: log10; quantity: MIC; unit before log: µg/mL

Illustrative cases are given below, each with its answer.
[[record]]
molecule = "CSCCC(N)C(=O)NC1CCN(c2nc3c(cc2F)c(=O)c(C(=O)O)cn3-c2ccc(F)cc2F)C1 (stereo not drawn) [Example 23]"
val = 0.49

[[record]]
molecule = "O=C(O)c1cn(-c2ccc(F)cc2F)c2nc(N3CCC(NC(=O)C4CCCN4)C3)c(F)cc2c1=O (stereo not drawn) [Example 28]"
val = 0.19

[[record]]
molecule = "CC(N)C(=O)NC(Cc1ccccc1)C(=O)NC1CCN(c2nc3c(cc2F)c(=O)c(C(=O)O)cn3-c2ccc(F)cc2F)C1 (stereo not drawn) [Example 11]"
val = 1.20

[[record]]
molecule = "CCCC(N)C(=O)NC1CCN(c2nc3c(cc2F)c(=O)c(C(=O)O)cn3-c2ccc(F)cc2)C1 (stereo not drawn) [Example 26i]"
val = -0.41

[[record]]
molecule = "N[C@@H](Cc1cnc[nH]1)C(=O)NC1CCN(c2nc3c(cc2F)c(=O)c(C(=O)O)cn3-c2ccc(F)cc2F)C1 (stereo partly drawn) [Example 44c, Dihydrochloride]"
val = 1.81


# evaluate next
Q. Reported log10 of MIC for CC(N)C(=O)NC1CCN(c2nc3c(cc2F)c(=O)c(C(=O)O)cn3-c2ccc(F)cc2F)C1 (stereo not drawn) [Example 17] : what is it?
A. -0.30
